Item-by-item account of growth inhibition
# procedure-details: NCI Yeast Anticancer Drug Screen. Data for the sgs1 mgt1 strain (AID 161);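 further: 0% = growth of cultures given vehicle only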
# test-conditions: S. cerevisiae sgs1 mgt1 strain, at 50.0 µM, hits give high values
This is part of a sample that, as a whole, favours compounds with a hit. Of some 79,000 tested, about 15% had one in any assay. Active and inactive are the calls of the source. No stated cut-off is given here; in the data, active means growth inhibition above about 70%; inactive means the rest.
parameter: growth inhibition

compound="CC(C)(C)[Si](C)(C)OCC1CCC(n2cnc3c(=O)[nH]cnc32)O1 (configuration not stated)" parameter="growth inhibition" result_value="7.6% (inactive)"
compound="CC(O)(C#Cc1ccccc1)c1nc2ccccc2s1 (configuration not stated)" parameter="growth inhibition" result_value="-4.95% (inactive)"
compound=CC1(CN2CCCCC2)COC(c2ccccc2)(c2ccccc2)OC1 parameter="growth inhibition" result_value="-13.6% (inactive)"
compound="C=C(C)C1CCC2(C)CC3C(=C)CC(O)C(O)C3(C)CCC12 (configuration not stated)" parameter="growth inhibition" result_value="90.8% (active)"
compound=COC(=O)CCC(=O)c1ccc(OC)cc1 parameter="growth inhibition" result_value="3.35% (inactive)"
compound=O=C(CCCCCCC(=O)ON1C(=O)CCC1=O)ON1C(=O)CCC1=O parameter="growth inhibition" result_value="-16.8% (inactive)"
compound="CC(=O)C1=C(O)C(Cc2ccccc2)NC1=O (configuration not stated)" parameter="growth inhibition" result_value="1.95% (inactive)"
compound="CN(C)Cc1cccc(C(F)(F)F)c1C(O)c1ccccc1 (configuration not stated)" parameter="growth inhibition" result_value="-5.3% (inactive)"
compound="CC(=O)Oc1ccc2c(c1)CC[C@@H]1C2[C@@H](O[N+](=O)[O-])C[C@@]2(C)C1CC[C@@H]2O (some centres not stated)" parameter="growth inhibition" result_value="77.2% (active)"
compound="COC(=O)N/N=C(\\c1ccc(OC)cc1)C(c1ccc(OC)cc1)C1(O)C(=O)Nc2c(C)cc(Cl)cc21 (configuration not stated)" parameter="growth inhibition" result_value="-4.35% (inactive)"
compound=CSc1nc[nH]c1C(N)=S parameter="growth inhibition" result_value="2.6% (inactive)"
compound=c1ccc(-c2ccc3c4ccccc4ccn23)cc1 parameter="growth inhibition" result_value="8.9% (inactive)"
compound=CC(C)(C)C(=O)N/N=C\c1ccc([N+](=O)[O-])s1 parameter="growth inhibition" result_value="20.4% (inactive)"
compound=CCCCOC(=O)Nc1ccccc1OCC parameter="growth inhibition" result_value="-0.35% (inactive)"
compound=O=C(N[C@H](CO)[C@H](O)c1ccc([N+](=O)[O-])cc1)C(Cl)Cl parameter="growth inhibition" result_value="28.9% (inactive)"
compound=CC(C)C(=O)Oc1cc2c(=O)oc3c(OC(=O)C(C)C)c(OC(=O)C(C)C)cc4c(=O)oc(c1OC(=O)C(C)C)c2c34 parameter="growth inhibition" result_value="25.6% (inactive)"
compound=O=C(O)/C=C/c1ccccc1Cl parameter="growth inhibition" result_value="-1.3% (inactive)"
compound="C[N+](C)(C)C1C2(CCCCC2)NC(=O)C12CCCCC2 (configuration not stated)" parameter="growth inhibition" result_value="-11.5% (inactive)"
compound="CC(C)CCCC(C)C1CCC2C3CCC(O)C(C)(CCCO)C3CCC12C (configuration not stated)" parameter="growth inhibition" result_value="11.9% (inactive)"
compound="O=[N+]([O-])c1cc2c(cc1Cl)C1C(C3C2C2(Cl)C(Cl)=C(Cl)C3(Cl)C2(Cl)Cl)C2(Cl)C(Cl)=C(Cl)C1(Cl)C2(Cl)Cl (configuration not stated)" parameter="growth inhibition" result_value="30.2% (inactive)"
compound="OC1CCC2CCCCC2C1 (configuration not stated)" parameter="growth inhibition" result_value="-15.4% (inactive)"
compound=O=S(=O)(Nc1cc(Cl)c(NS(=O)(=O)c2ccccc2)c(S(=O)(=O)c2ccccc2)c1Cl)c1ccccc1 parameter="growth inhibition" result_value="73.5% (active)"
compound=N#Cc1ccc(OCCCCOc2ccc([N+](=O)[O-])cc2Cl)cc1 parameter="growth inhibition" result_value="-19.4% (inactive)"
compound="CCOC(=O)C1=C(C)Oc2cc3c(cc2C1c1ccc(OC)cc1)OCO3 (configuration not stated)" parameter="growth inhibition" result_value="23.5% (inactive)"
compound=Cc1ncnc(N)c1N parameter="growth inhibition" result_value="8.95% (inactive)"
compound="CCOC(=O)/C(=C(/N)C1OC(COC(c2ccccc2)(c2ccccc2)c2ccccc2)C2OC(C)(C)OC12)C1CC(=O)N(C)C1=O (configuration not stated)" parameter="growth inhibition" result_value="12.7% (inactive)"
compound="CC12CCC(O)CC1=CCC1C2CCC2(C)C(C(O)CC(O)(C(F)(F)F)C(F)(F)F)CCC12 (configuration not stated)" parameter="growth inhibition" result_value="47.9% (inactive)"
compound=CN1NC2(CCCCC2)ON=C1c1ccccc1 parameter="growth inhibition" result_value="11.1% (inactive)"
compound=COC(=O)c1c(C(=O)Nc2ccccc2)c(-c2ccccc2)n(NC(N)=O)c1C parameter="growth inhibition" result_value="4.2% (inactive)"
compound="CS(=O)CC(Nc1ccccc1)c1ccccc1 (configuration not stated)" parameter="growth inhibition" result_value="-10.6% (inactive)"
compound=Cc1cc(=O)n(NC(N)=O)c(C)c1C(=O)O parameter="growth inhibition" result_value="-13.8% (inactive)"
compound=Cc1cccc(Cl)c1O parameter="growth inhibition" result_value="23.6% (inactive)"
compound="CN(C)CC1CCCC/C1=N/OC(=O)c1ccc(Cl)cc1 (configuration not stated)" parameter="growth inhibition" result_value="10.9% (inactive)"
compound="CC1CC(C)OC(C)(c2ccccc2)O1 (configuration not stated)" parameter="growth inhibition" result_value="-0.9% (inactive)"
compound=O=C(O)/C=C/Sc1ccc(Cl)cc1 parameter="growth inhibition" result_value="79.3% (active)"
compound=C[C@H]1C(=O)OCN1C(=O)OCc1ccccc1 parameter="growth inhibition" result_value="12.3% (inactive)"
compound=O=c1oc(-c2cccc(C[n+]3ccccc3)c2)nc2cc(Cl)ccc12 parameter="growth inhibition" result_value="-11.4% (inactive)"
compound=CCOC(=O)NNC(N)=O parameter="growth inhibition" result_value="-18% (inactive)"
compound="CC1NC(=O)c2c(-c3ccccc3)nn(-c3ccccc3)c2NC1=O (configuration not stated)" parameter="growth inhibition" result_value="11.8% (inactive)"
compound=CC1=NN(c2nc(N)nc(CN3CCOCC3)n2)C(C)(C)C1 parameter="growth inhibition" result_value="17.4% (inactive)"
compound=Cc1cc2c(=O)cc(-c3ccccc3)oc2c(C(N)=O)c1C parameter="growth inhibition" result_value="27.5% (inactive)"
compound=CCCCCCCCCCCCCCCCS(=O)(=O)N/N=c1\cc(-c2ccccc2Cl)c2ccccc2n1C parameter="growth inhibition" result_value="1.95% (inactive)"
compound=Fc1ccc(-c2nc3ccccc3[nH]2)cc1 parameter="growth inhibition" result_value="-1.2% (inactive)"
compound="O=C(NC(Cc1cccnc1)C(=O)O)c1ccccc1 (configuration not stated)" parameter="growth inhibition" result_value="8.55% (inactive)"
compound="CC(C)=CCC(C)c1ccncc1 (configuration not stated)" parameter="growth inhibition" result_value="9.45% (inactive)"
compound="O=C1OC2C(O1)C1(c3ccccc3)OC2(c2ccccc2)c2ccccc21 (configuration not stated)" parameter="growth inhibition" result_value="13.5% (inactive)"
compound=O=c1c2n(c(=O)c3n1CCC=3)CCC=2 parameter="growth inhibition" result_value="-0.6% (inactive)"

Entry source: PubChem BioAssay (NCI)
